target.or.system: T1, mouse SIRPβ1 on CHO cells (mouse)
T1 construct: Whole entry
T1 chain: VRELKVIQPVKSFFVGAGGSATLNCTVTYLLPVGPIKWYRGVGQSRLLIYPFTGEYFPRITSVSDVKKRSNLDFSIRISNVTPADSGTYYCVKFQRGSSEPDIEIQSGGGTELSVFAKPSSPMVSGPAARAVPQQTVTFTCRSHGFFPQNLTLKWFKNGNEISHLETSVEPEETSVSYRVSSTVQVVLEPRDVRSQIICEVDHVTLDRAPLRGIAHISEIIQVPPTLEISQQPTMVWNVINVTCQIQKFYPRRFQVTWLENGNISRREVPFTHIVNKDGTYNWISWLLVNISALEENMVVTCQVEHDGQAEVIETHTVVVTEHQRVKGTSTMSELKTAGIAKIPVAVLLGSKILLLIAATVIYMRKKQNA
test.protocol: flow cytometry;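 further: antibodies tested at 1 µg/ml for 30 min on ice against receptor-expressing cells, detected with a PE-labelled secondary antibody, read as mean fluorescence intensity relative to background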

binder: SB-43 (antibody, V domains shown, IgG) VH: QVQLQESGPGLVKPSETLSLTCAVSGYSISSGYYWAWIRQPPGKGLEWIGSIYHSGSTYYNPSLKSRVTISVDTSKNQFSLKLSSVTAADTAVYYCARDAPGYPMLGMDVWGQGTTVSVSS VL: EIVLTQSPATLSLSPGERATLSCRASQSVSSYLAWYQQKPGQAPRLLIYDASKRATGIPARFSGSGSGTDFTLTISSLEPEDFAVYYCQQRFDFPITFGGGTKVEIK
FOB / fold over background: 1.1
//
binder: SB-28 (antibody, V domains shown, IgG) VH: QLQLQESGPGLVKPSETLSLTCTVSGGSISSSSYYWGWIRQPPGKGLEWIGSISYSGSTYYNPSLKSRVTISVDTSKNQFSLKLSSVTAADTAVYYCARDPRDYSSGSSGGGWGYFDLWGRGTLVTVSS VL: EIVLTQSPGTLSLSPGERATLSCRASQSVSSSYLAWYQQKPGQAPRLLIYGASSRATGIPDRFSGSGSGTDFTLTISRLEPEDFAVYYCQQDGNFPLTFGGGTKVEIK
FOB / fold over background: 1.2
//
binder: SB-23 (antibody, V domains shown, IgG) VH: QVQLVQSGAEVKKPGSSVKVSCKASGGTFSSYAISWVRQAPGQGLEWMGGIAPIFGTANYAQKFQGRVTITADESTSTAYMELSSLRSEDTAVYYCARTTYRDYYMDVWGKGTTVTVSS VL: DIQMTQSPSSLSASVGDRVTITCRASQSISSYLNWYQQKPGKAPKLLIYAASSLQSGVPSRFSGSGSGTDFTLTISSLQPEDFATYYCQQAYPYPLTFGGGTKVEIK
FOB / fold over background: 1.5
//
binder: SB-22 (antibody, V domains shown, IgG) VH: EVQLVESGGGLVQPGGSLRLSCAASGFTVSSNYMSWVRQAPGKGLEWVSVIYSDGSTYYADSVKGRFTISRDNSKNTLYLQMNSLRAEDTAVYYCARPTRYGYDRLGMDVWGQGTTVTVSS VL: DIQMTQSPSSVSASVGDRVTITCRASQGISSWLAWYQQKPGKAPKLLIYAASNLQSGVPSRFSGSGSGTDFTLTISSLQPEDFATYYCQQGNSYPITFGGGTKVEIK
FOB / fold over background: 1.4
//
binder: SB-36 (antibody, V domains shown, IgG) VH: QVQLVQSGAEVKKPGASVKVSCKASGYTFTSYYMHWVRQAPGQGLEWMGIINPSGGSTSYAQKFQGRVTMTRDTSTSTVYMELSSLRSEDTAVYYCAREGPEQLWYLDYWGQGTLVTVSS VL: DIQMTQSPSSVSASVGDRVTITCRASQGISSWLAWYQQKPGKAPKLLIYAASSLQSGVPSRFSGSGSGTDFTLTISSLQPEDFATYYCQQAFSHRTFGGGTKVEIK
FOB / fold over background: 1.1
